# Target Or Test System: T1, EsCas13d, nuclease-dead (Eubacterium siraeum, UniProt B0MS50, R295A;H300A;R849A;H854A)
# T1 sequence: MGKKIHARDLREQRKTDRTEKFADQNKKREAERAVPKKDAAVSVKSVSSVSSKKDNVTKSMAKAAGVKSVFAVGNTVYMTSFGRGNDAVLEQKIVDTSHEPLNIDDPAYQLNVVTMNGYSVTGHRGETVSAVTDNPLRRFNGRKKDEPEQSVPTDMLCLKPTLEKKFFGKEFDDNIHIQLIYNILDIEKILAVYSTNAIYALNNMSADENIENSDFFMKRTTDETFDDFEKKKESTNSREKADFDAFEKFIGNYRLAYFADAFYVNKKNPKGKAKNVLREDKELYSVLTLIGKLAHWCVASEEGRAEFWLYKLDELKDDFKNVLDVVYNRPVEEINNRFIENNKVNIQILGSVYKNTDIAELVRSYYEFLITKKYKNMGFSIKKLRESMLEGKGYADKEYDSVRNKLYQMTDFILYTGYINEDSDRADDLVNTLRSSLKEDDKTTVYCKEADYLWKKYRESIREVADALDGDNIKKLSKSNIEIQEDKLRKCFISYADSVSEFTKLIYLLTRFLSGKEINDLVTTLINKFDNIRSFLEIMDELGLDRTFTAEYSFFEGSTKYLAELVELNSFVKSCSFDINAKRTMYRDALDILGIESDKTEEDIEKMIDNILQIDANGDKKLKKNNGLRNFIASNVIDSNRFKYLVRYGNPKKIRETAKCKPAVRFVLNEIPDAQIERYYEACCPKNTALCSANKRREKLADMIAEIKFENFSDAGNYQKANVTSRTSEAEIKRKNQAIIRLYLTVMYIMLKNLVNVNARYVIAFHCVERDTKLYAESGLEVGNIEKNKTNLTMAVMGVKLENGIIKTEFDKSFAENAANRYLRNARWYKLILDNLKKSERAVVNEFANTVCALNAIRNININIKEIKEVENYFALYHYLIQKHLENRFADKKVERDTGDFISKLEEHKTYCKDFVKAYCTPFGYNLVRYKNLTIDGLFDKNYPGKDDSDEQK
# Assay Comment: crRNA (strand 1, pre-loaded); Mg2+; 40 mM Tris-HCl pH 7.5, 150 mM NaCl, 6 mM MgCl2, 1 mM DTT, 0.1% Tween-20, 0.2 mg/ml BSA; 25 C; 10 min per concentration, then washed
# Experimental Conditions: tags: His6-TwinStrep-SUMO cleaved; N-terminal SNAP kept (SNAP-Surface 488); label: 3' end held by stalled T7 RNA polymerase
binders and their reported pKd
Note on pKd: it is the negative log10 of concentration, concentration in mol/L.

Example cases with answers are listed next.
target 2 MT 5'PFS CUC 3'PFS UUU (mixed) RNA 1: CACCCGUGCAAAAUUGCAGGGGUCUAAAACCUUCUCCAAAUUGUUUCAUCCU RNA 2: GGGAAUGGAUCCACAUCUACGAAUUCCUCAGGAUGAAACAAUUUGGAGAAGUUUAGAUCGGAAGAGCACACGU ... 8.28
target 1 MT 5'PFS GUU 3'PFS ACU (mixed) RNA 1: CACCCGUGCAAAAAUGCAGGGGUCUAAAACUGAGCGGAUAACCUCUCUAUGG RNA 2: GGGAAUGGAUCCACAUCUACGAAUUCGUUCCAUAGAGAGGUUAUCCGCUCAACUAGAUCGGAAGAGCACACGU ... 7.80
target 1 A1U,A20U (mixed) RNA 1: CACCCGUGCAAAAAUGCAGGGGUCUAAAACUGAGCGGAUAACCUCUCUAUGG RNA 2: GGGAAUGGAUCCACAUCUACGAAUUCGUACCUUAGAGAGGUUAUCCGCUCUCCGAGAUCGGAAGAGCACACGU ... 7.45

// recorded pKd for target 1 insC 3' of 17,insU 3' of 5 (mixed) RNA 1: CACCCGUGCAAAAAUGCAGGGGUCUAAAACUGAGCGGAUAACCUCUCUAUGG RNA 2: GGGAAUGGAUCCACAUCUACGAAUUCGUACCAUAGCAGAGGUUAUCCGUCUCACCGAGAUCGGAAGAGCACACGU : 7.45

Kindly note the recorded pKd for target 3 G4U (mixed) RNA 1: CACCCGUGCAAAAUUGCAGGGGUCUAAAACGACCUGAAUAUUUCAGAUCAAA RNA 2: GGGAAUGGAUCCACAUCUACGAAUUCGUUUUUGAUCUGAAAUAUUCAUGUCUGCAGAUCGGAAGAGCACACGU , which is 8.37

Record target 1 del4,del8 (mixed) RNA 1: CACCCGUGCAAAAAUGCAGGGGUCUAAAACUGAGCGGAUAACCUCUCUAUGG RNA 2: GGGAAUGGAUCCACAUCUACGAAUUCGUACCAUAGAGAGGUUACCGUCACCGAGAUCGGAAGAGCACACGU , field pKd: 7.92

Kindly note the recorded pKd for target 2 MT 5'PFS UUU 3'PFS CUC (mixed) RNA 1: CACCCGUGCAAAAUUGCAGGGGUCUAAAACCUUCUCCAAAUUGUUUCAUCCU RNA 2: GGGAAUGGAUCCACAUCUACGAAUUCUUUAGGAUGAAACAAUUUGGAGAAGCUCAGAUCGGAAGAGCACACGU , which is 8.08
